pIC50 data for Drak2 (Homo sapiens, UniProt O94768) follow.
pIC50: −log10 of the molar value. Where a name gives a salt, the structure may show the parent alone.

Reference set, count: 5
# compound, test.system, measurement.label, test.value
measured = [
    ("CCCCC(=O)Nc1csc(-c2cncc(-c3ccc(C(=O)N(C)CCN(C)C)c(OC)c3)n2)c1", "Drak2 (Homo sapiens, UniProt O94768)", "pIC50", "7.00 to 7.96"),
    ("COc1cc(-c2cncc(-c3cc(NC(=O)CC4CCC4)cs3)n2)ccc1OCCN1CCCC1=O", "Drak2 (Homo sapiens, UniProt O94768)", "pIC50", "7.00 to 7.96"),
    ("CN1CCC(C(=O)N2CCOc3cc(-c4cncc(-c5cc(NC(=O)CC6CCC6)cs5)n4)ccc32)CC1 [Example E1]", "Drak2 (Homo sapiens, UniProt O94768)", "pIC50", "7.00 to 7.96"),
    ("CCCCC(=O)Nc1csc(-c2cncc(C3CCN(S(C)(=O)=O)CC3)n2)c1", "Drak2 (Homo sapiens, UniProt O94768)", "pIC50", "5.00 to 6.00"),
    ("COc1cc(-c2cncc(-c3cc(NC(=O)CC4CC(C(C)(F)F)C4)cs3)n2)ccc1C(=O)N(C)C1CCN(C)CC1 (centres unmarked)", "Drak2 (Homo sapiens, UniProt O94768)", "pIC50", "7.00 to 7.96"),
]

Consider the compound "COc1cc(-c2cncc(-c3cc(NC(=O)C4CCCCC4)cs3)n2)ccc1C(=O)O" and give its measured pIC50. 6.00 to 7.00

Please do the same for "CCCCC(=O)Nc1csc(-c2nccc(-c3ccc(C(=O)N(C)C4CCN(C)CC4)c(OC)c3)n2)c1" as well. 5.00 to 6.00

Thanks! And "COc1cc(-c2cncc(-c3cc(NC(=O)CC4CC4)cs3)n2)ccc1C(=O)N(C)OC" ? 7.00 to 7.96

Can you handle COc1ccc(-c2cncc(-c3cc(N)cs3)n2)cc1OC [Example A2, hydrochloride] next? 5.00 to 6.00

How about "CCCCC(=O)Nc1csc(-c2cncc(-c3ccc(F)c(F)c3)n2)c1" ? 5.00 to 6.00

Let us now turn to "CCCCC(=O)Nc1csc(-c2cncc(-c3ccc(OC)c(C#N)c3)n2)c1" 6.00 to 7.00

Now consider "CCCCC(=O)Nc1csc(-c2cncc(-c3ccc(C(=O)O)c(OC)c3)n2)c1" . 7.00 to 7.96

Likewise for "COc1cc(-c2cncc(-c3cc(NC(=O)CC45CC(C4)C5)cs3)n2)ccc1C(=O)Nc1nnco1" ? 6.00 to 7.00

Request: "CCCCC(=O)Nc1csc(-c2cncc(-c3ccc(OCCN4CCSCC4)c(OC)c3)n2)c1" 7.00 to 7.96

Query "CCCCC(=O)Nc1csc(-c2cncc(-c3ccc(C(=O)N(C)C4CCN(C)CC4)c(F)c3)n2)c1" next 6.00 to 7.00

Again, but for "CCCCC(=O)Nc1csc(-c2cncc(-c3ccc(OC)c(Cl)c3)n2)c1" 6.00 to 7.00

Now consider "COc1cc(-c2cncc(-c3cc(NC(=O)CC4(C)COC4)cs3)n2)ccc1C(=O)N(C)C1CCN(C)CC1" . 6.00 to 7.00

Also need "COc1cc(-c2cncc(-c3cc(NC(=O)CC4CCC4)cs3)n2)ccc1C(=O)Nc1nnnn1C" , thanks. 7.00 to 7.96

Here is the next compound: COc1cc(-c2cncc(-c3cc(NC(=O)CC4CC(C(C)=O)C4)cs3)n2)ccc1C(=O)N(C)C1CCN(C)CC1 (centres unmarked) 6.00 to 7.00

Subsequent entry: "CCCCC(=O)Nc1csc(-c2cncc(-c3cccc(C#N)c3)n2)c1" 6.00 to 7.00

Now this one: "COc1cc(-c2cncc(-c3cc(NC(=O)CC4CC4)cs3)n2)ccc1C(=O)Nc1nnco1" 7.00 to 7.96

Follow-up entry: "COc1cc(-c2cncc(-c3cc(NC(=O)CC4CCC4)cs3)n2)ccc1OCCN1CC2(CN(C)C2)C1" 7.00 to 7.96

"CCCCC(=O)Nc1csc(-c2cncc(-c3ccc(S(C)(=O)=O)cc3)n2)c1" ? 6.00 to 7.00

Then this compound: "COc1ccc(-c2cncc(-c3cc(NC(=O)c4ccccc4)cs3)n2)cc1OC" 5.00 to 6.00

Try the compound "CCCCCC(=O)Nc1csc(-c2cncc(-c3ccc(OC)c(OC)c3)n2)c1" 6.00 to 7.00
